# protocol: amyloid nucleation score (Sup35N fusion, yeast selection) (log enrichment); library NNK3; higher = more nucleation; inactive = no reads after selection;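 note: zero at mode of non-aggregating sequences after 7 days selection at 30°C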
readout-name: amyloid nucleation score

Use these answered entries as a reference point.
>>> assay_value("GTLLMMVFGTVHS")
"inactive"
>>> assay_value("MAMDCLISTALVLLVKYASV")
"inactive"
>>> assay_value("DYKMVRYWNLE")
"inactive"
>>> assay_value("QWVSLGLVGVGQ")
"inactive"
>>> assay_value("EAMPHLARGFVVFMCFFRSG")
"inactive"

Input line: Using the record for `SKCGLLNSSGTYWNIG` , state its measured amyloid nucleation score.
Output line: 0.934

Input line: Tell us which amyloid nucleation score value is on record for `VESFICDMIVSPHSLS`
Output line: inactive

Input line: State, in one line, measured amyloid nucleation score of `SHQFYMSARTNW`
Output line: 0.701

Input line: Fill in reported amyloid nucleation score for this entry: `YARYNTLVLSAKPPLLYDSW`
Output line: inactive

Input line: State its amyloid nucleation score: `NHGLLTKGMISAFRII`
Output line: inactive

Input line: Identify measured amyloid nucleation score associated with `GAVWFIRRRPKDRIRRVSLW`
Output line: inactive

Input line: Answer with reported amyloid nucleation score of `LFVYSWKRFDGNWNKLSWNR`
Output line: inactive

Input line: Supply amyloid nucleation score value. Item: `TPRKVVDNGGLIDFKVYRLL`
Output line: inactive

###

Give measured amyloid nucleation score for each item. Keep answers brief.
# protocol: amyloid nucleation score (Sup35N fusion, yeast selection) (log enrichment); library NNK2; higher = more nucleation; inactive = no reads after selection
Note: the reply should be a number with no unit written.

Input line: Identify measured amyloid nucleation score associated with `VGVVGYVETSLLGLRRCG`
Output line: -0.976

Input line: Give the value of amyloid nucleation score reported for the following: `CLVFTRVWYCAIYRTSFKET`
Output line: -0.474

Input line: Give reported amyloid nucleation score value for `TICFIFHSFRLFRIDAY`
Output line: 4.54

Input line: In one line, give reported amyloid nucleation score of the entry `GCTCYWFS` .
Output line: 1.63

###

# protocol: amyloid nucleation score (Sup35N fusion, yeast selection) (log enrichment); library NNK3; higher = more nucleation; inactive = no reads after selection
readout-name: amyloid nucleation score

Solved cases below.
>>> assay_value("TLDVQGTCH")
"inactive"
>>> assay_value("NFMPNKYCNVELVFWGDLGI")
1.59
>>> assay_value("ANNPLLG")
"inactive"
>>> assay_value("NAHCMVLMHRAKVWIFMINK")
"inactive"
>>> assay_value("RSLFSISAVIEICMLWSV")
"inactive"

Input line: Return amyloid nucleation score for the following substance: `TMTRSLYSVVSFKRFNSCLV`
Output line: inactive

Input line: Name the recorded amyloid nucleation score of the substance listed here: `SIDDVDFSGTAKMSSSQRCT`
Output line: inactive

Input line: Given the substance `FTWYRR` , write its reported amyloid nucleation score.
Output line: inactive

###

# protocol: amyloid nucleation score (Sup35N fusion, yeast selection) (log enrichment); library NNK2; higher = more nucleation; inactive = no reads after selection
readout-name: amyloid nucleation score
Write no unit; give the number alone.

Input line: Input `GKCWRVRASIFVGILFKIAG` , output reported amyloid nucleation score.
Output line: 0.486

Input line: Identify the reported amyloid nucleation score for the following entry. `RPVSSFVSASGSRSGLQSLK`
Output line: 0.085

Input line: Answer with the recorded amyloid nucleation score of `FFSRTKYDSSRLKPWGMDIS` only.
Output line: 0.523

Input line: Supply amyloid nucleation score value. Item: `TSLGNL`
Output line: -0.825

Input line: Find the measured amyloid nucleation score of `TFLQPTLEVSLL` and report it.
Output line: -0.612

Input line: Respond only with amyloid nucleation score recorded for `LYSRSTSILDERWSTVIILL`
Output line: 2.5

Input line: State its amyloid nucleation score: `VGVVLFFFVLCYWVKT`
Output line: -0.79

Input line: Provide measured amyloid nucleation score value, entry: `HKVQLVWPFVYLVEVQRRSG`
Output line: 2.85

Input line: Determine from records and report amyloid nucleation score for `NLTYWLVLLRFKKLTDGEHE`
Output line: -0.259

Input line: Fill in reported amyloid nucleation score for this entry: `RNSYALNINEM`
Output line: -0.4

Input line: Name the recorded amyloid nucleation score of the item `LHQGKPYITLALYRFLHGSR` in your answer.
Output line: -1.15

Input line: Provide amyloid nucleation score value for the following substance: `YFFRVSYVEFVRCFGFSCRW`
Output line: -0.846

Input line: Look up and state reported amyloid nucleation score for `SYARIYFWDEILENPSPVWE`
Output line: -0.378

Input line: Return amyloid nucleation score (reported value) for this substance: `GLAMFKYIMAIVRNF`
Output line: -0.855

Input line: Given `WSGWSQGDGLVQGQVMRAFV` , respond with its amyloid nucleation score.
Output line: -0.284

Input line: Retrieve amyloid nucleation score measured for `MISESF` and print it.
Output line: 0.403

Input line: Report amyloid nucleation score, nothing else, for this substance: `LCRYFQN`
Output line: 0.218

Input line: # return recorded amyloid nucleation score for input `LFIDLEMLFSPRN`
Output line: 5.47
